- System: E. coli (ATCC 25922)
- experiment_notes: Minimal inhibitory concentration, broth microdilution (negative control strain)
- Format: cell-based
- condition_info: Escherichia coli, ATCC25922; broth microdilution, 20 h at 35 °C; read-out: MIC E. coli ATCC25922
experimental_endpoint: MIC

Query: For CCCCCCCCCCN(CCCCCCCCCC)C(=O)CN=C1OCC2C(O)C(O)C(O)CN12 (centres unmarked) , what is its reported MIC?
Reply: > 500 µM

Query: Do the same for CCCCCCCCCCCCNC(=O)N1CC(O)C(O)C(O)C1 (centres unmarked) please
Reply: > 500 µM

Query: Param item: CCCCOC1OCC(CNC(=N)N2CC(O)C(O)C(O)C2)O1 (centres unmarked)
Reply: > 500 µM

Query: Note, next up: CCCCCCCCNC(=O)N1CC(O)C(O)C(O)C1 (centres unmarked)
Reply: > 500 µM

Query: Now consider CCCCCCCCCCCCNC(=N)N1CC(O)C(O)C(O)C1 (centres unmarked) and answer again.
Reply: 500 µM

Query: Query CCCCCCCCCCCCCCN=C1OCC2C(O)C(O)C(O)CN12 (centres unmarked) next
Reply: 125 µM

Query: Ok, now CCCCCCCCCCNC(=O)N1CC(O)C(O)C(O)C1 (centres unmarked)
Reply: > 500 µM

Query: What about this molecule? CCCCCCCCCCNC(=N)N1CC(O)C(O)C(O)C1 (centres unmarked)
Reply: > 500 µM

Query: Ok, now CCCCCCCCCCCCCCNC(=N)N1CC(O)C(O)C(O)C1 (centres unmarked)
Reply: 125 µM

Query: And for CCCCCCCCCCN(CCCCCCCCCC)C(=O)CNC(=N)N1CC(O)C(O)C(O)C1 (centres unmarked) ?
Reply: 500 µM

Query: Entry to check: CCCCCCCCCCCCCCNC(=O)N1CC(O)C(O)C(O)C1 (centres unmarked)
Reply: > 500 µM

* * *

Exercise: for every item that follows, state its recorded MIC.
- System: S. aureus (ATCC 29213)
- experiment_notes: Minimal inhibitory concentration, broth microdilution
- Format: cell-based, Staphylococcus aureus
- condition_info: Staphylococcus aureus, ATCC29213; broth microdilution, 20 h at 35 °C; read-out: MIC S. aureus ATCC29213

Query: Name the reported MIC value associated with the compound CCCCCCCCCCN(CCCCCCCCCC)C(=O)CNC(=N)N1CC(O)C(O)C(O)C1 (centres unmarked)
Reply: ≤ 4 µM

Query: Now give it for CCCCCCCCNC(=O)N1CC(O)C(O)C(O)C1 (centres unmarked) too.
Reply: 125 µM

Query: Now the compound CCCCCCCCCCCCCCNC(=N)N1CC(O)C(O)C(O)C1 (centres unmarked)
Reply: 15 µM

Query: Same question, CCCCCCCCCCCCCCN=C1OCC2C(O)C(O)C(O)CN12 (centres unmarked) this time
Reply: 8 µM

Query: Here is the next compound: CCCCCCCCCCNC(=N)N1CC(O)C(O)C(O)C1 (centres unmarked)
Reply: 500 µM

Query: Try the compound CCCCCCCCCCCCCCNC(=O)N1CC(O)C(O)C(O)C1 (centres unmarked)
Reply: > 500 µM

Query: Follow-up entry: CCCCCCCCCCN(CCCCCCCCCC)C(=O)CN=C1OCC2C(O)C(O)C(O)CN12 (centres unmarked)
Reply: 125 µM

Query: Similarly, CCCCCCCCCCNC(=O)N1CC(O)C(O)C(O)C1 (centres unmarked) ?
Reply: > 500 µM

Query: // repeat for CCCCCCCCCCCCNC(=N)N1CC(O)C(O)C(O)C1 (centres unmarked) and report
Reply: 62.5 µM

Query: Now consider CCCCOC1OCC(CNC(=N)N2CC(O)C(O)C(O)C2)O1 (centres unmarked) .
Reply: > 500 µM

Query: Cool, now CCCCCCCCCCCCNC(=O)N1CC(O)C(O)C(O)C1 (centres unmarked)
Reply: 250 µM
